Test: Absorption spectra and extinction coefficients of rhodol dyes
Format: physicochemical
Conditions: in methanol
test readout: Abs Max

# get_value(readout='Abs Max', item= NCCCCCNC(=O)c1ccc(C(=O)O)c(-c2c3cc(Cl)c(=O)cc-3oc3c4c5c(cc23)CCCN5CCC4)c1 [Compound 30] )
541 nm

Now consider O=c1cc2oc3c4c5c(cc3c(CCl)c-2cc1Cl)CCCN5CCC4 [Compound 51] and answer again.
563 nm

Now consider O=C(O)CCc1cc2c(C(F)(F)F)c3cc4c5c(c3oc-2cc1=O)CCCN5CCC4 [Compound 57] and answer again.
593 nm

Now consider NCCNC(=O)c1ccc(C(=O)O)c(-c2c3cc(Cl)c(=O)cc-3oc3c4c5c(cc23)CCCN5CCC4)c1 [Compound 31] and answer again.
540 nm

Now consider O=C(O)CCCCc1cc2cc3cc4c5c(c3oc-2cc1=O)CCCN5CCC4 [Compound 55] and answer again.
532 nm

Now consider O=C(O)CCc1cc2cc3cc4c5c(c3oc-2cc1=O)CCCN5CCC4 [Compound 54] and answer again.
531 nm

Now consider CCCCCCCCCCCCCCCCc1cc2c(-c3cc(C(=O)O)ccc3C(=O)O)c3cc4c5c(c3oc-2cc1=O)CCCN5CCC4 [Compound 34] and answer again.
531 nm

Now consider O=C(O)CCCCCCCCCCCc1cc2cc3cc4c5c(c3oc-2cc1=O)CCCN5CCC4 [Compound 56] and answer again.
532 nm

----------
Experiment: Absorption spectra and extinction coefficients of rhodol dyes
Format: physicochemical
Conditions: in methanol
test readout: ε (extinction coefficient) (M⁻¹ cm⁻¹)
Write down the numeric answer in M⁻¹ cm⁻¹ and omit the unit.

# get_value(readout='ε (extinction coefficient)', item= O=C(O)CCc1cc2cc3cc4c5c(c3oc-2cc1=O)CCCN5CCC4 )
81400

Now consider O=C(O)CCCCCCCCCCCc1cc2cc3cc4c5c(c3oc-2cc1=O)CCCN5CCC4 and answer again.
84400

Now consider CCCCCCCCCCCCCCCCc1cc2c(-c3cc(C(=O)O)ccc3C(=O)O)c3cc4c5c(c3oc-2cc1=O)CCCN5CCC4 and answer again.
84400

Now consider O=C(O)CCCCc1cc2cc3cc4c5c(c3oc-2cc1=O)CCCN5CCC4 and answer again.
88700

----------
Assay: pKa / pH dependence of absorption and emission
Format: physicochemical
Conditions: 50 mm phosphate buffer
Task for the reader: assign each of the following molecules its reported pKa.
Answer using only a numeral; do not append any unit.

# get_value(readout='pKa', item= CCNc1cc2oc3cc(=O)c(CCC(=O)O)cc-3c(-c3ccccc3C(=O)O)c2cc1C )
5.91

Now consider O=C(O)c1ccc(C(=O)O)c(-c2c3cc(Cl)c(=O)cc-3oc3c4c5c(cc23)CCCN5CCC4)c1 and answer again.
5.11

Now consider O=C(O)c1ccc(C(=O)O)c(-c2c3cc(Cl)c(=O)cc-3oc3cc4c(cc23)CCCN4)c1 and answer again.
4.50

Now consider O=C(O)CCc1cc2c(cc1O)Oc1c(cc3c4c1CCCN4CCC3)C21OC(=O)c2ccccc21 (stereo not shown) and answer again.
6.63

----------
Experiment: Quantum yield relative to fluorescein
Assay type: physicochemical
Details: aqueous 50 mM phosphate buffer at pH 8.0-9.0; uncorrected
test readout: QY (quantum yield)
Answer using only a numeral; do not append any unit.

# get_value(readout='QY (quantum yield)', item= O=C1OC2(c3ccc(O)cc3Oc3cc(O)ccc32)c2ccccc21 )
0.92

Now consider O=C(O)c1ccc(C(=O)O)c(-c2c3cc(Cl)c(=O)cc-3oc3cc4c(cc23)CCCN4)c1 and answer again.
0.37

Now consider CCNc1cc2oc3cc(=O)c(CCC(=O)O)cc-3c(-c3ccccc3C(=O)O)c2cc1C and answer again.
0.65

Now consider O=C(O)CCc1cc2cc3cc4c5c(c3oc-2cc1=O)CCCN5CCC4 and answer again.
0.44

Now consider O=C(O)CCc1cc2c(cc1O)Oc1c(cc3c4c1CCCN4CCC3)C21OC(=O)c2ccccc21 (stereo not drawn) and answer again.
0.41

Now consider O=C(O)c1ccc(C(=O)O)c(-c2c3cc(Cl)c(=O)cc-3oc3c4c5c(cc23)CCCN5CCC4)c1 and answer again.
0.31

----------
Assay: Fluorescence emission spectra of rhodol dyes (uncorrected)
Format: physicochemical
Settings: aqueous 50 mM phosphate buffer at pH 8.0-9.0
test readout: Em Max (nm)
Write down the numeric answer in nm and omit the unit.

# get_value(readout='Em Max', item= [N-]=[N+]=Nc1ccc(C(=O)NCCCCCNC(=O)CCc2cc3c(cc2O)Oc2c(cc4c5c2CCCN5CCC4)C32OC(=O)c3ccccc32)cc1 (stereo not shown) [Compound 43] )
572

Now consider CCNc1cc2oc3cc(=O)c(CCC(=O)O)cc-3c(-c3ccccc3C(=O)O)c2cc1C [Compound 17] and answer again.
534

Now consider CCCCCCCCCCCCCCCCc1cc2c(-c3cc(C(=O)O)ccc3C(=O)O)c3cc4c5c(c3oc-2cc1=O)CCCN5CCC4 [Compound 34] and answer again.
572

Now consider NNC(=O)CCc1cc2c(-c3ccccc3C(=O)O)c3cc4c5c(c3oc-2cc1=O)CCCN5CCC4 [Compound 49] and answer again.
573

Now consider O=C(O)c1ccc(C(=O)O)c(-c2c3cc(Cl)c(=O)cc-3oc3c4c5c(cc23)CCCN5CCC4)c1 [Compound 28] and answer again.
572

Now consider CCc1cc2c(C(=O)O)c3cc4c5c(c3oc-2cc1=O)CCCN5CCC4 [Compound 52] and answer again.
603

Now consider O=C(CCc1cc2c(-c3ccccc3C(=O)O)c3cc4c5c(c3oc-2cc1=O)CCCN5CCC4)NCCCCCNC(=O)CN1C(=O)C=CC1=O [Compound 45] and answer again.
573

----------
Test: Absorption spectra and extinction coefficients of rhodol dyes
Format: physicochemical
Details: aqueous 50 mM phosphate buffer at pH 8.0-9.0
Label scheme for ε (extinction coefficient): lower than 70000 M⁻¹ cm⁻¹ is rule not met, 70000 M⁻¹ cm⁻¹ and above is rule met.

Reported ε (extinction coefficient) reaches at least 70000 M⁻¹ cm⁻¹ for CCNc1cc2oc3cc(=O)c(CCC(=O)O)cc-3c(-c3ccccc3C(=O)O)c2cc1C [Compound 17] ?
rule met

Now consider NCCCCCNC(=O)c1ccc(C(=O)O)c(-c2c3cc(Cl)c(=O)cc-3oc3c4c5c(cc23)CCCN5CCC4)c1 [Compound 30] and answer again.
rule not met

Now consider O=C(O)CCc1cc2c(cc1O)Oc1c(cc3c4c1CCCN4CCC3)C21OC(=O)c2ccccc21 (stereo not shown) [Compound 39] and answer again.
rule not met

Now consider O=C(O)c1ccc(C(=O)O)c(-c2c3cc(Cl)c(=O)cc-3oc3c4c5c(cc23)CCCN5CCC4)c1 [Compound 28] and answer again.
rule met

Now consider O=C1OC2(c3ccc(O)cc3Oc3cc(O)ccc32)c2ccccc21 [Fluorescein] and answer again.
rule met

Now consider O=C(O)CCCCc1cc2cc3cc4c5c(c3oc-2cc1=O)CCCN5CCC4 [Compound 55] and answer again.
rule not met

----------
Task for the reader: assign each of the following compounds its reported Em Max.
Test: Fluorescence emission spectra of rhodol dyes (uncorrected)
Assay type: physicochemical
Conditions: aqueous 50 mM phosphate buffer at pH 8.0-9.0
Text: Uncorrected fluorescence data was obtained on a Perkin-Elmer Model 650-40 Fluorescence Spectrophotometer equipped with a Perkin-Elmer/Hitachi 057 X-Y recorder using a ten- to twentyfold dilution of the absorbance solutions. […]
Write down the numeric answer in nm and omit the unit.

# get_value(readout='Em Max', item= C=CC(=O)NCCCCCNC(=O)CCc1cc2c(-c3ccccc3C(=O)O)c3cc4c5c(c3oc-2cc1=O)CCCN5CCC4 [Compound 42] )
571

Now consider NCCCCCNC(=O)CCc1cc2c(cc1O)Oc1c(cc3c4c1CCCN4CCC3)C21OC(=O)c2ccccc21 (stereo not drawn) [Compound 50] and answer again.
572

Now consider O=C(O)CCc1cc2c(cc1O)Oc1c(cc3c4c1CCCN4CCC3)C21OC(=O)c2ccccc21 (stereo not drawn) [Compound 39] and answer again.
562

Now consider O=C1OC2(c3ccc(O)cc3Oc3cc(O)ccc32)c2ccccc21 [Fluorescein] and answer again.
514

Now consider O=C(O)CCc1cc2cc3cc4c5c(c3oc-2cc1=O)CCCN5CCC4 [Compound 54] and answer again.
562

Now consider O=C(O)CCCCc1cc2cc3cc4c5c(c3oc-2cc1=O)CCCN5CCC4 [Compound 55] and answer again.
562

----------
Experiment: Fluorescence emission spectra of rhodol dyes (uncorrected)
Assay type: physicochemical
Conditions: in methanol
Excerpt: Uncorrected fluorescence data was obtained on a Perkin-Elmer Model 650-40 Fluorescence Spectrophotometer equipped with a Perkin-Elmer/Hitachi 057 X-Y recorder using a ten- to twentyfold dilution of the absorbance solutions. […]
Task for the reader: assign each of the following compounds its reported Em Max.
Write down the numeric answer in nm and omit the unit.

# get_value(readout='Em Max', item= O=C(O)CCc1cc2cc3cc4c5c(c3oc-2cc1=O)CCCN5CCC4 [Compound 54] )
555

Now consider NCCNC(=O)c1ccc(C(=O)O)c(-c2c3cc(Cl)c(=O)cc-3oc3c4c5c(cc23)CCCN5CCC4)c1 [Compound 31] and answer again.
568

Now consider O=C(O)CCCCc1cc2cc3cc4c5c(c3oc-2cc1=O)CCCN5CCC4 [Compound 55] and answer again.
556

Now consider CCCCCCCCCCCCCCCCc1cc2c(-c3cc(C(=O)O)ccc3C(=O)O)c3cc4c5c(c3oc-2cc1=O)CCCN5CCC4 [Compound 34] and answer again.
562

Now consider O=c1cc2oc3c4c5c(cc3c(CCl)c-2cc1Cl)CCCN5CCC4 [Compound 51] and answer again.
578

Now consider O=C(O)CCCCCCCCCCCc1cc2cc3cc4c5c(c3oc-2cc1=O)CCCN5CCC4 [Compound 56] and answer again.
556

Now consider O=C(O)CCc1cc2c(C(F)(F)F)c3cc4c5c(c3oc-2cc1=O)CCCN5CCC4 [Compound 57] and answer again.
633

Now consider NCCCCCNC(=O)c1ccc(C(=O)O)c(-c2c3cc(Cl)c(=O)cc-3oc3c4c5c(cc23)CCCN5CCC4)c1 [Compound 30] and answer again.
567

Cited source for all entries: patent US5227487A
